STUDY_SYSTEM: Recombinant human IL-1β (BioLegend 579404) (human, UniProt P01584 117-269)
ASSAY_REMARKS: cell-based or functional assay
Starred links: 1 amine or outer side, 2 acyl side, 3 side chain; linkers in the order of their positions; H or OH if unused. Non-standard residues stand in square brackets, D forms with d. No end group written: not given here. TyrEtNAc = (2S)-3-[4-(2-acetamidoethoxy)phenyl]-2-amino-propanoic acid, CC(=O)NCCOc1ccc(C[C@H](N[*:1])C(=O)[*:2])cc1; dProc3CH24Pal = (2R,3S)-3-(4-pyridylmethyl)pyrrolidine-2-carboxylic acid, O=C([C@H]1[C@@H](Cc2ccncc2)CCN1[*:1])[*:2]; dPro(4R-(4-pyridylmethyl)) = O=C(O)[C@H]1C[C@@H](Cc2ccncc2)CN1; Trp(βS-Me,4-F) = C[C@@H](c1c[nH]c2cccc(F)c12)[C@H](N)C(=O)O; Bip(4'-COOH) = N[C@@H](Cc1ccc(-c2ccc(C(=O)O)cc2)cc1)C(=O)O; Ala(1-bicyclo(1.1.1)pentyl) = N[C@@H](CC12CC(C1)C2)C(=O)O; dPro(4R-Bzl(4-F)) = O=C(O)[C@H]1C[C@@H](Cc2ccc(F)cc2)CN1; Ala(piperazin-1-yl) = N[C@@H](CN1CCNCC1)C(=O)O; Ala(pyrimidin-5-yl) = N[C@@H](Cc1cncnc1)C(=O)O; Phe(4-CONH2) = NC(=O)c1ccc(C[C@H](N)C(=O)O)cc1; Phe(4-COOH) = N[C@@H](Cc1ccc(C(=O)O)cc1)C(=O)O; Pro(cis-4-F) = O=C(O)[C@@H]1C[C@H](F)CN1; cisHyp = O=C(O)[C@@H]1C[C@H](O)CN1; d(αMeD) = C[C@@](N)(CC(=O)O)C(=O)O; 4Pal = N[C@@H](Cc1ccncc1)C(=O)O; dCha = N[C@H](CC1CCCCC1)C(=O)O; Cba = N[C@@H](CC1CCC1)C(=O)O; NMeDab = CN[C@@H](CCN)C(=O)O; Dab = NCC[C@H](N)C(=O)O; Aib = CC(C)(N)C(=O)O
MEASUREMENT_LABEL: MRC5 IC50 (pM)

Consider the worked cases shown below.
>  <BINDER>
[Bip(4'-COOH)][4Pal][Phe(4-COOH)]G[Pro(cis-4-F)][Trp(βS-Me,4-F)][Aib]SW[d(αMeD)][dCha]Q[Dab]G[dProc3CH24Pal] (lactam (positions not given here); also: macrolactam, ring places not given here) [SEQ ID NO: 237]

>  <UNITS>
pM

>  <MRC5 IC50>
25

$$$$
>  <BINDER>
cyclo([Bip(4'-COOH)][Cba][Phe(4-COOH)]G[cisHyp][Trp(βS-Me,4-F)][Aib]SW[d(αMeD)][Ala(pyrimidin-5-yl)]Q[Dab]G[dPro(4R-(4-pyridylmethyl))]) (ring closure inferred) [SEQ ID NO: 164]

>  <UNITS>
pM

>  <MRC5 IC50>
39

$$$$
>  <BINDER>
cyclo([TyrEtNAc][4Pal][Phe(4-CONH2)]G[Pro(cis-4-F)][Trp(βS-Me,4-F)][Aib]SW[Aib][Ala(pyrimidin-5-yl)]Q[NMeDab]G[dPro(4R-(4-pyridylmethyl))]) (ring closure inferred; not fully specified (bridges)) [SEQ ID NO: 218]

>  <UNITS>
pM

>  <MRC5 IC50>
36

$$$$

I. cyclo([Bip(4'-COOH)][Cba][Phe(4-COOH)]G[Pro(cis-4-F)][Trp(βS-Me,4-F)][Aib]SW[Aib][Ala(pyrimidin-5-yl)]Q[Dab]G[dPro(4R-(4-pyridylmethyl))]) (ring closure inferred) [SEQ ID NO: 163]
II. cyclo([Bip(4'-COOH)][Ala(1-bicyclo(1.1.1)pentyl)][Phe(4-COOH)]G[Pro(cis-4-F)][Trp(βS-Me,4-F)][Aib]SW[Aib][Ala(piperazin-1-yl)]Q[Dab]G[dPro(4R-Bzl(4-F))]) (ring closure inferred) [SEQ ID NO: 168]
Query: // max by MRC5 IC50 over [ I , II ] Respond using the label that marks the chosen record.
Result: I
(I: 30 pM, II: 18 pM)
